Data origin: ChEMBL document CHEMBL1134638

Catalogue of pIC50 values
Tested on: SK-OV-3
Experiment: In vitro inhibitory activity against SK-OV-3 cells using XTT proliferation assay.
Format: functional, cell-based
Conditions: Homo sapiens
// returns pIC50 (minus log10 of molar concentration), number only

{"Structure Smiles": "COc1ccc2[nH]c(C(=O)c3cccc(F)c3)cc2c1", "pIC50": 7.82}
{"Structure Smiles": "COc1ccc2[nH]c(C(=O)c3cccc(N)c3C)cc2c1", "pIC50": 4.94}
{"Structure Smiles": "COc1ccc2[nH]c(C(=O)c3cccc(OC)c3OC)cc2c1", "pIC50": 5.49}

Name the reported pIC50 value associated with the compound "COc1ccc2[nH]c(C(=O)c3ccc(OC)c(OC)c3OC)cc2c1" 7.06

Name the reported pIC50 value associated with the compound "COc1ccc2[nH]c(C(=O)c3ccc(Cl)c(Cl)c3)cc2c1" 7.00

Name the reported pIC50 value associated with the compound "COc1cc(C(=O)c2cc3ccccc3[nH]2)cc(OC)c1OC" 5.02

Name the reported pIC50 value associated with the compound "COc1ccc2[nH]c(C(=O)c3c(F)cccc3F)cc2c1" 5.06

Name the reported pIC50 value associated with the compound "CCc1ccc(C(=O)c2cc3cc(OC)ccc3[nH]2)cc1" 4.94

* * *

System: SK-OV-3
Assay: In vitro inhibitory activity against SK-OV-3 cells using XTT proliferation assay.
Assay type: functional, cell-based
Conditions: Homo sapiens
Catalogue of pIC50 values
// returns pIC50 (minus log10 of molar concentration), number only

{"Structure Smiles": "COc1ccc2[nH]c(C(=O)c3ccccc3)cc2c1", "pIC50": 6.17}
{"Structure Smiles": "COc1ccc2[nH]c(C(=O)c3ccc(OC)c(OC)c3)cc2c1", "pIC50": 5.79}
{"Structure Smiles": "COc1ccc2[nH]c(C(=O)c3ccc(Br)cc3)cc2c1", "pIC50": 6.04}

Consider now this further molecule.
Name the reported pIC50 value associated with the molecule "CCCC(=O)Oc1cccc(C(=O)c2cc3cc(OC)ccc3[nH]2)c1" 6.62

* * *

Catalogue of IC50 values
Test system: SK-OV-3
Assay: In vitro inhibitory activity against SK-OV-3 cells using XTT proliferation assay.
Format: functional, cell-based
Settings: Homo sapiens

Completed entries (count: 3):
{"Structure Smiles": "COc1ccc2[nH]c(C(=O)c3cccc(N)c3)cc2c1", "Assayed System": "SK-OV-3", "IC50": "230 nM"}
{"Structure Smiles": "COc1ccc2[nH]c(C(=O)c3cccc(C(F)(F)F)c3)cc2c1", "Assayed System": "SK-OV-3", "IC50": "30 nM"}
{"Structure Smiles": "CCCc1ccc(C(=O)c2cc3cc(OC)ccc3[nH]2)cc1", "Assayed System": "SK-OV-3", "IC50": "> 10900 nM"}

Name the reported IC50 value associated with the molecule "COc1ccc2[nH]c(C(=O)c3ccccc3C)cc2c1" 380 nM

Name the reported IC50 value associated with the molecule "COc1ccc2[nH]c(C(=O)c3cccc([N+](=O)[O-])c3)cc2c1" 100 nM

Name the reported IC50 value associated with the molecule "COc1ccc2[nH]c(C(=O)c3c(F)cccc3Cl)cc2c1" > 10500 nM

* * *

Catalogue of IC50 values
Biological target: Tubulin beta chain (Bos taurus, UniProt Q6B856)
Sequence (Q6B856 whole entry): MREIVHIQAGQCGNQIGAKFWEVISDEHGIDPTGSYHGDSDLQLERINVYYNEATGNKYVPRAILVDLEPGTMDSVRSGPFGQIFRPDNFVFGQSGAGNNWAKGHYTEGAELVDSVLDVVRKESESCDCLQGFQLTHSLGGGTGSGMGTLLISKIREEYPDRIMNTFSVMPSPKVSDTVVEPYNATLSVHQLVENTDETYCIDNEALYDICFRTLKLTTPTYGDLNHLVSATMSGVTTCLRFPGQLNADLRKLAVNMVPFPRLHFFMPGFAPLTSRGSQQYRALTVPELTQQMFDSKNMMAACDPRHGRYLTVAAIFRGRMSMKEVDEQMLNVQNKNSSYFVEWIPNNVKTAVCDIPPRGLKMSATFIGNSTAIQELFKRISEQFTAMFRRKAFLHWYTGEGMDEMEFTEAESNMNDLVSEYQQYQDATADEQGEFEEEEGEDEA
Test: Inhibition of tubulin polymerization.
Format: functional

{"Structure Smiles": "COc1ccc2[nH]c(C(=O)c3ccc(C)cc3)cc2c1", "IC50": "1500 nM"}
{"Structure Smiles": "COc1ccc2[nH]c(C(=O)c3cccc([N+](=O)[O-])c3)cc2c1", "IC50": "850 nM"}
{"Structure Smiles": "COc1ccc2[nH]c(C(=O)c3ccccc3F)cc2c1", "IC50": "1000 nM"}
{"Structure Smiles": "COc1ccc2[nH]c(C(=O)c3cccc(O)c3)cc2c1", "IC50": "660 nM"}
{"Structure Smiles": "COc1ccc2[nH]c(C(=O)c3cccc(N)c3C)cc2c1", "IC50": "> 10000 nM"}

Name the reported IC50 value associated with the compound "COc1ccc2[nH]c(C(=O)c3cccc(OC(F)(F)F)c3)cc2c1" 1700 nM
